# Tested on: A549/ATCC NSCLC
# protocol.description: NCI-60 one-dose screen, 48 h
# test.parameters: 10 µM unless noted
This is part of a sample that, as a whole, favours compounds with a hit. Of some 83,000 tested, about 20% had one in any assay. Active and inactive are the calls of the source. Rule for the calls: active = growth percent below 10; inactive = the rest.
Result category, one only: active, inactive

For orientation, consider the following solved cases.
smiles.entry	test.target	label
FC(F)(F)c1ccc(/C=N/Nc2nnc3n2N=C(c2ccc(Cl)cc2)CS3)cc1	A549/ATCC NSCLC	inactive
CCOC(=O)c1ccc(N(CCC(=O)O)C(C)=O)cc1	A549/ATCC NSCLC	inactive
NCCCOc1cc2ccccc2cc1C(=O)NCCCOc1cc2ccccc2cc1C(=O)Nc1ccc(Cl)cc1O	A549/ATCC NSCLC	active
CCCCCc1c(C)[nH]c(/C=C2\N=C(c3ccc[nH]3)C=C2CC)c1C	A549/ATCC NSCLC	active
Clc1cn2cc(-c3ccc(Cl)c(Cl)c3Cl)nc2s1	A549/ATCC NSCLC	inactive
COc1ccc(-c2n[nH]nc2-c2cc(OC)c3c(c2)OCO3)cc1	A549/ATCC NSCLC	inactive
CCNS(=O)(=O)c1ccc(C)cc1	A549/ATCC NSCLC	inactive
CCc1ccc(Nc2ncnc3c2cnn3-c2cccc(Br)c2)cc1	A549/ATCC NSCLC	inactive
O=C1/C(=C\c2cccn2Cc2ccc(F)cc2)c2ccccc2N1c1c(Cl)cccc1Cl	A549/ATCC NSCLC	inactive

How was CC1(C)CC[C@]2(C(=O)N3CCNCC3)CC[C@]3(C)C(=CC[C@@H]4[C@@]5(C)CCC(=O)C(C)(C)[C@@H]5CC[C@]43C)[C@@H]2C1 classified in this test?
inactive
